B1: library; a variant is named by its letters at N, in order (parent)
chain: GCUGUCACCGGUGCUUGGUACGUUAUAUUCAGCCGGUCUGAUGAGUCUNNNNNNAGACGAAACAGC

Variants of: B1
Assay: normalized RNA/DNA level without ligand (relative to sTRSVctl = 100) (log10 (% of sTRSVctl)); HEK293T overexpressing SLC46A1; higher = less ribozyme self-cleavage, higher mRNA level
Details: without (6R,S)-folinic acid; ligand present: no
Consider the following variants; for each one, report its normalized RNA/DNA level without ligand (log10).
Form: value (number only, do not type unit).

Query: Need normalized RNA/DNA level without ligand (log10), item `AAAUCC`
Reply: 2.04

Query: I have this variant here, `ACUUGA` , and I need its recorded normalized RNA/DNA level without ligand (log10).
Reply: 1.98

Query: Bench note: what normalized RNA/DNA level without ligand (log10) did `CCAGCC` show?
Reply: 2.05

Query: Item under review: `CAAUCC` . Reported normalized RNA/DNA level without ligand (log10)?
Reply: 2.02

Query: Bench note: what normalized RNA/DNA level without ligand (log10) did `AACAAC` show?
Reply: 2.03

Query: Requested read-out: normalized RNA/DNA level without ligand (log10). Entry: `AACCAC`
Reply: 2.01

Query: Can you share its normalized RNA/DNA level without ligand (log10)? I mean this variant: `GUAAGC`
Reply: 1.9

Query: Report normalized RNA/DNA level without ligand (log10) for `GUGGGU` please.
Reply: 1.98

Query: I'd like to know its normalized RNA/DNA level without ligand (log10). The variant in question is `CUGAUG`
Reply: 2.01

Query: Entry under review: `UCCUAG` . Reported normalized RNA/DNA level without ligand (log10)?
Reply: 1.85

Query: Could you tell me which normalized RNA/DNA level without ligand (log10) is on file for `GUAUGU` ?
Reply: 1.94

Query: GET /values?readout=normalized RNA/DNA level without ligand (log10)&item= `CCAGGC`
Reply: 2.09

Query: Please look up its normalized RNA/DNA level without ligand (log10): `UAAAUU`
Reply: 1.98

Query: Suppose we examine the variant `GAAAAG` ; what normalized RNA/DNA level without ligand (log10) value has been reported?
Reply: 1.94

Query: Consider the variant shown here: `AUUGAG` What is its recorded normalized RNA/DNA level without ligand (log10)?
Reply: 1.72

Query: Which normalized RNA/DNA level without ligand (log10) value belongs to `AUAAAU` ?
Reply: 1.95

Query: # normalized RNA/DNA level without ligand (log10) lookup, item `CGGAUA`
Reply: 1.97

Query: Request the reported normalized RNA/DNA level without ligand (log10) associated with `CCGUCA`
Reply: 2.04
